- System: MV-4-11 (carrying MLL-AF4)
- procedureDetails: Inhibition of proliferation of human tumor cells (Alamar Blue, 7 days), MV-4-11
- Assay type: cell-based
- experimentalConditions: Homo sapiens, MV4-11, 168 h, MV-4-11 cells (carrying MLL-AF4), method calls the value GI50
pIC50: −log10 of the molar value.
measure: pIC50

molecule: COC1CCN(CCC[C@H](C(C)C)N2CC(c3cc(-c4ccc(F)cc4C(=O)N4CCOC[C@H]4C)c4c(F)nc(C)n4c3)C2)CC1
readoutNumber: 8.55
//
molecule: CCN(C(=O)c1cc(F)ccc1-c1cc(C2CN([C@H](CCCN3CCN(C)CC3)C(C)C)C2)cn2c(C)nc(F)c12)C(C)C
readoutNumber: 9.04
//
molecule: CNC(=O)N1CCC([C@H](C)N2CC(c3cc(-c4ccc(F)cc4C(=O)N4CCOC[C@H]4C)c4c(F)nc(C)n4c3)C2)CC1
readoutNumber: 8.33
//
molecule: Cc1cncc2c(-c3ccc(F)cc3C(=O)N(CC(F)F)C(C)C)cc(CC3CN(CC4CCOCC4)C3)n12
readoutNumber: 8.46

I: Cc1nc(F)c2c(-c3ccc(F)cc3C(=O)N3CCOC[C@H]3C)cc(C3CN([C@@H](C)C4CCN(C(=O)C5(O)CC5)CC4)C3)cn12
II: COCCN(C)CCCC(C(C)C)N1CC(c2cc(-c3ccc(F)cc3C(=O)N3CCOC[C@H]3C)c3cnn(C)c3c2)C1 (stereo partly drawn)
Enquiry: Rank I against II by their pIC50 values and give the higher one. The response must carry the label of the picked entry.
Return: I
(I: 8.08, II: 7.57)

---

- assaySystem: Menin-MLL (Homo sapiens)
- Construct: His-Menin (M1-L615 end); purchased BIORTUS BP9210
- Sequence (O00255 1-615 isoform O00255-1): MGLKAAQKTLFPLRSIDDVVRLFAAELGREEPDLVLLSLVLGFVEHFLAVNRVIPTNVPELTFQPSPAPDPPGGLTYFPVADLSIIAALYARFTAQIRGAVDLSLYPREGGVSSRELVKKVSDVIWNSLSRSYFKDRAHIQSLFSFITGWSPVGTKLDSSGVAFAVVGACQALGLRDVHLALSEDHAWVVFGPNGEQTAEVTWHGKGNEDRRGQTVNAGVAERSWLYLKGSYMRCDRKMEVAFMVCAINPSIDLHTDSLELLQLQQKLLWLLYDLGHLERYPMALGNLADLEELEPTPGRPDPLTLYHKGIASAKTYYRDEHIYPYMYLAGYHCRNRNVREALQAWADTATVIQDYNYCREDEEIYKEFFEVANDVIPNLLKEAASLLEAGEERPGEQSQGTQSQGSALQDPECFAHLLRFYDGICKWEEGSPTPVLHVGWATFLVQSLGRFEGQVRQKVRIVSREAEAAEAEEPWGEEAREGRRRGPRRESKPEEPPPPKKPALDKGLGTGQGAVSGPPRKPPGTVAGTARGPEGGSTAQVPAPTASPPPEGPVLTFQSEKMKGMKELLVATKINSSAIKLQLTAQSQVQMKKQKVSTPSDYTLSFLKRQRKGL
- procedureDetails: Inhibitory activity against Menin-MLL binding (fluorescence polarization)
- experimentalConditions: Menin-MLL IC50, fluorescence polarization; 150 nM His-Menin, 15 nM FITC-MLL; 25°C for 60 min
Parameter IC50: see the listing below.
Just the number please, in µM, no unit attached.

molecule: CO[C@H]1CCN([C@H]2C[C@H](C(C(C)C)N3CC(c4cc(-c5ccc(F)cc5C(=O)N5CCOC[C@H]5C)c5cnn(C)c5c4)C3)C2)C1 (stereo partly drawn)
readoutNumber: 0.05

molecule: CCN(C(=O)c1cc(F)ccc1-c1cc([C@@H]2CCN(C[C@H]3CC[C@H](NS(=O)(=O)CC)CC3)C2)cc2cncn12)C(C)C
readoutNumber: 0.0057

Next:
Enquiry: Looking for the measured IC50 of CCN(C(=O)c1cc(F)ccc1-c1cc(C2CCN(C[C@]3(F)CC[C@H](NS(=O)(=O)CC)CC3)C2)cn2c(C)ncc12)C(C)C (stereo partly drawn) , can you help?
Return: 0.064
